Data provenance: patent US12473290B2

assay: Kit225 T Cell Assay, IL-23-stimulated STAT-dependent luciferase reporter; format: cell-based; conditions: Kit225 T cells, 20 ng/mL human recombinant IL-23, 5-6 hours, luciferase expression
Threshold check on IC50: strictly below 500 nM is label 1; on or above 500 nM is label 0.

Query string: Given N#Cc1cnc2c(Nc3ccc(C(=O)N4CCCC4)cn3)cc(NC3CCOCC3)nn12 , is recorded IC50 strictly lower than 500 nM?
Result string: label 1

Query string: In plain terms, does CC(C)(O)C(=O)Nc1cccc(Nc2cc(NC3CCOCC3)nn3c(C#N)cnc23)n1 come in under 500 nM for IC50?
Result string: label 1

Query string: is_below(IC50, 500 nM) for CC(C)(CC(N)=O)NC(=O)c1cccc(Nc2cc(NC34CC5CC(CC(O)(C5)C3)C4)nn3c(C#N)cnc23)n1 ?
Result string: label 0

Query string: Please check: IC50 for N#Cc1cnc2c(Nc3ccc(C(=O)N4CCCC4)c(N4CCCC4)n3)cc(N[C@H]3CCCC[C@@H]3O)nn12 , strictly under 500 nM or not?
Result string: label 0

Query string: Check if IC50 falls below 500 nM for CC(C)(C)NC(=O)c1ccc(Nc2cc(NCC3CC3)nn3c(C#N)cnc23)nc1 .
Result string: label 1

Query string: is_below(IC50, 500 nM) for N#Cc1cnc2c(Nc3ccc(C(=O)N4CCCC4)c(N4CCCC4)n3)cc(N[C@@H]3CCCC[C@H]3O)nn12 ?
Result string: label 1

----------
experiment: Kit225 T Cell Assay, IL-23-stimulated STAT-dependent luciferase reporter; format: cell-based; details: Kit225 T cells, 20 ng/mL human recombinant IL-23, 5-6 hours, luciferase expression
Would you kindly list pIC50 for each of these molecules?
# pIC50 is unitless: minus log10 of the molar concentration; print number only

Query string: What measured pIC50 goes with COCCNC(=O)c1ccc(Nc2cc(N[C@@H]3CCCC[C@H]3O)nn3c(C#N)cnc23)nc1N(C)C ?
Result string: 6.17

Query string: Fill in: pIC50 of N#Cc1cnc2c(Nc3ccc(C(=O)N4CC[C@@H](C#N)C4)c(OCC(F)F)n3)cc(NC3CCOCC3)nn12 is ___
Result string: 6.47

Query string: What does the data say about its pIC50? Entry: N#Cc1cnc2c(Nc3cccc(N4CCOCC4=O)n3)cc(N[C@@H]3CCCC[C@H]3O)nn12
Result string: 6.37

Query string: Value lookup for pIC50; key = COc1cccc2ccc(Nc3cc(NC45CC6CC(CC(O)(C6)C4)C5)nn4c(C#N)cnc34)nc12
Result string: 6.72

----------
test system: IFNα Kit225 Reporter (Kit225 T cells with a stably-integrated STAT-dependent luciferase reporter, stimulated with IFNα); experiment: Kit225 T Cell Assay, IFNα-stimulated STAT-dependent luciferase reporter; format: cell-based; details: 200 U/mL human recombinant IFNα, 5-6 hours, luciferase expression
quantity.name: pIC50
pIC50 here: minus log base 10 of the concentration, concentration in moles per litre.

Query string: Report pIC50 for N#Cc1cnc2c(Nc3ccc(C(=O)N4CCCC4)c(OCC(F)(F)F)n3)cc(N[C@@H]3CCCC[C@H]3O)nn12 please.
Result string: 6.28

Query string: Recorded pIC50 of CC1(C)CCCN1C(=O)c1ccc(Nc2cc(N[C@@H]3CCCC[C@H]3O)nn3c(C#N)cnc23)nc1 , please.
Result string: 6.89

Query string: Any idea what pIC50 was measured for COc1cccc2ccc(Nc3cc(NC45CC6CC(CC(O)(C6)C4)C5)nn4c(C#N)cnc34)nc12 ?
Result string: 6.34

Query string: Fill blank: measured pIC50 of the molecule CN(C)c1nc(Nc2cc(N[C@@H]3CCCC[C@H]3O)nn3c(C#N)cnc23)ccc1C(=O)N1CCCC1 is ____.
Result string: 6.72

Query string: What pIC50 value was documented for this molecule, CC(C)(O)C(=O)Nc1cccc(Nc2cc(N[C@@H]3CCCC[C@H]3O)nn3c(C#N)cnc23)n1 ?
Result string: 6.41

Query string: Bench note: what pIC50 did N#Cc1cnc2c(Nc3ccc(C(=O)NCC4CCCO4)c(OCC(F)F)n3)cc(N[C@@H]3CCCC[C@H]3O)nn12 (stereo partly shown) show?
Result string: 6.21

Query string: I am curious: what pIC50 value has been reported for C[C@@H](NC(=O)c1cccc(Nc2cc(NC34CC5CC(CC(O)(C5)C3)C4)nn3c(C#N)cnc23)n1)C(F)(F)F ?
Result string: 6.49
